All figures here come from patent US20070191450A1.

- runDescription: Median toxic dose (TD50), i.p., listed with the Rat Hippocampal Kindling Test
- testSettings: Sprague-Dawley, in vivo, ip, Table 4 dose column
readout: log10 of TD50 (log10 of the value in mg/kg)
Please note: log10 values; quantity TD50; unit mg/kg.

{"molecule": "O=C1NC(=O)C(c2ccccc2)(c2ccccc2)N1", "log10 of TD50": 1.18}
{"molecule": "NC(=O)N1c2ccccc2C=Cc2ccccc21 [Carbamazepine, carbamazepine]", "log10 of TD50": 1.41}
{"molecule": "CCC1(C)CC(=O)NC1=O (centres unmarked) [Ethosuximide]", "log10 of TD50": 2.28}
{"molecule": "CCCC(CCC)C(=O)O", "log10 of TD50": 2.50}

Next molecule, log10 of TD50 to be filled in.
Lookup: Give recorded log10 of TD50. NS(=O)(=O)NCc1csc2ccccc12 [Compound #1, N-(benzo[b]thien-3-ylmethyl)-sulfamide]
Found: 2.00
